I'd be grateful if you could share measured Cell viability (%) Mouse microglia 50 μM for these entries.
Test system: Mouse microglia
Experiment: Cell viability (CellTiter-Glo), mouse microglia
Type: cell-based
Details: 50 μM, CellTiter-Glo
State just the number; it will be interpreted in %.

QUERY: Field request: Cell viability (%) Mouse microglia 50 μM | item: CCc1noc(-c2ncn3c2CN=C(c2ccccn2)c2cc(Br)ccc2-3)n1 [GL-III-99]
RESULT: 95

QUERY: For CCNC(=O)c1ncn2c1[C@@H](C)N=C(c1ccccc1F)c1cc(Br)ccc1-2 [GL-III-67] , what is its reported Cell viability (%) Mouse microglia 50 μM?
RESULT: 85

QUERY: Return reported Cell viability (%) Mouse microglia 50 μM; argument: Cc1noc(-c2ncn3c2[C@@H](C)N=C(c2ccccc2F)c2cc(Br)ccc2-3)n1 [GL-III-60]
RESULT: 100

QUERY: Need Cell viability (%) Mouse microglia 50 μM, item C[C@H]1N=C(c2ccccc2F)c2cc(Br)ccc2-n2cnc(-c3cnco3)c21 [GL-III-36]
RESULT: 97

QUERY: Query: Cell viability (%) Mouse microglia 50 μM; subject: C#Cc1ccc2c(c1)C(c1ccccn1)=NC(C)C(=O)N2C (stereo not drawn) [GL-II-61]
RESULT: 91

QUERY: So what does the record say about Cell viability (%) Mouse microglia 50 μM for CCc1noc(-c2ncn3c2[C@@H](C)N=C(c2ccccc2F)c2cc(C4CC4)ccc2-3)n1 [GL-IV-03] ?
RESULT: 100

QUERY: Recorded Cell viability (%) Mouse microglia 50 μM of C#Cc1ccc2c(c1)C(c1ccccn1)=NCc1c(-c3nc(CC)no3)ncn1-2 [MP-III-080] , please.
RESULT: 100

QUERY: Name the reported Cell viability (%) Mouse microglia 50 μM value associated with the compound C#Cc1ccc2c(c1)C(c1ccccn1)=NCc1c(C(=O)O)ncn1-2 [GL-III-13]
RESULT: 92

QUERY: Reported Cell viability (%) Mouse microglia 50 μM for C#Cc1ccc2c(c1)C(c1ccccn1)=N[C@H](C)C(=O)N2 [GL-III-27] : what is it?
RESULT: 86

QUERY: So what's the measured Cell viability (%) Mouse microglia 50 μM for this one? C#Cc1ccc2c(c1)C(c1ccccc1F)=N[C@H](C)C(=O)N2 [GL-I-62]
RESULT: 92

QUERY: Fill blank: measured Cell viability (%) Mouse microglia 50 μM of the compound C#Cc1ccc2c(c1)C(c1ccccc1F)=NCc1c(C(=O)OCCCO)ncn1-2 [GL-II-80] is ____.
RESULT: 85

QUERY: Need Cell viability (%) Mouse microglia 50 μM of C#Cc1ccc2c(c1)C(c1ccccn1)=N[C@H](C)c1c(C(=O)OC)ncn1-2 [GL-II-32] , thanks.
RESULT: 95

QUERY: I am curious: what Cell viability (%) Mouse microglia 50 μM value has been reported for C[C@H]1N=C(c2ccccc2F)c2cc(C3CC3)ccc2-n2cnc(C(=O)N(C)C)c21 [GL-III-70] ?
RESULT: 86

QUERY: So what's the measured Cell viability (%) Mouse microglia 50 μM for this one? C#Cc1ccc2c(c1)C(c1ccccn1)=NCC(=O)N2 [GL-III-58]
RESULT: 83

QUERY: # lookup: Cell viability (%) Mouse microglia 50 μM of Cc1noc(-c2ncn3c2[C@@H](C)N=C(c2ccccc2F)c2cc(C4CC4)ccc2-3)n1 [GL-III-63]
RESULT: 100

QUERY: Given CC1N=C(c2ccccc2F)c2cc(C#C[Si](C)(C)C)ccc2-n2cnc(-c3cnco3)c21 (stereo not drawn) [GL-III-72] , state its recorded Cell viability (%) Mouse microglia 50 μM.
RESULT: 100

QUERY: I have this compound here, CCNC(=O)c1ncn2c1[C@@H](C)N=C(c1ccccc1F)c1cc(C3CC3)ccc1-2 [GL-III-68] , and I need its recorded Cell viability (%) Mouse microglia 50 μM.
RESULT: 83

QUERY: // returns reported Cell viability (%) Mouse microglia 50 μM for input CCc1noc(-c2ncn3c2[C@@H](C)N=C(c2ccccc2F)c2cc(Br)ccc2-3)n1 [GL-III-98]
RESULT: 83
